Test system: HEK-293T
procedure-text: Multiplex assay against HEK293T
Format: toxicity, cell-based
condition-summary: human, 12 h, 1 µM, compound concentration 1 uM, replicate 1
Let's look at some molecules and their measured Population Fragmented Nuclei (%).
measured-metric: Population Fragmented Nuclei (%)

[
  {
    "molecule": "CN(C)C(=O)C(CCN1CCC(O)(c2ccc(Cl)cc2)CC1)(c1ccccc1)c1ccccc1.Cl [LOPERAMIDE HYDROCHLORIDE]",
    "subject-of-test": "HEK-293T",
    "recorded-value": 10
  },
  {
    "molecule": "O=C(Nc1ccc(Cl)cc1)Nc1cccc(-c2cccc(N3CCCC3)n2)c1",
    "subject-of-test": "HEK-293T",
    "recorded-value": 10
  },
  {
    "molecule": "CN1CCC(=C2c3ccccc3CC(=O)c3sccc32)CC1.O=C(O)/C=C/C(=O)O [KETOTIFEN FUMARATE]",
    "subject-of-test": "HEK-293T",
    "recorded-value": 10
  }
]
